Origin of measurements: PubChem BioAssay

Assay: probe aShh binding to arrayed compounds – biochemical, biotinylated probe, 635/667 nm fluorescence, primary screen (AID 1114);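 also: probe is biotin-labelled aShh protein from a stem cell growth factor screen; measures binding of labelled protein to compounds printed on the slide; score merges feature fluorescence at 667 nm with signal-to-noise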
Conditions: small-molecule microarray, higher = more signal
Entries and their measured composite z-score follow.

CCCCCCc1nc(Cc2cc(OC)c(OC)c(OC)c2)cc2c1[Si](C(C)C)(C(C)C)O[C@H]2c1ccccc1 ... 0.235
C=CCOC(=O)[C@@H]1[C@H]2C(=O)O[C@H](c3ccccc3)[C@H](c3ccccc3)N2[C@H](c2ccc(OCCOC(=O)[C@H]3C[C@H]4C(=O)NCC(=O)N4[C@H]3c3cccc(OCCO)c3)cc2)[C@@]12C(=O)Nc1ccc(I)cc12 ... 0.147
C#CCN1[C@@H](Cc2ccccc2)C(=O)O[C@H](Cc2ccccc2)[C@@H]1/C=C/C1CC1 ... -0.0337
CC(C)N1C(=O)c2ccccc2[C@@H](C(=O)NCC(F)(F)F)[C@@H]1c1ccc(CO)cc1 ... -0.0626
O=C(NCC(O)CO)[C@@]1(CCS(=O)(=O)c2ccccc2)N=C(c2ccc(OCCCO)cc2)O[C@H]1c1ccccc1 (stereo not given in full) ... 0.181
CCCCCC1=C2CNC(CC(C)C)(C(=O)OC)C=C2C(C)C1=O (stereo not given) ... 1.16
CC(C)(C)N1CC=CC23O[C@@H]4/C=C\CCCOC(=O)C4[C@H]2C(=O)N(CCCCCO)[C@@H]3C1=O (stereo not given in full) ... 0.074
COC(=O)[C@]1(Cc2ccccc2)N=C(c2ccc(OCCCO)cc2)O[C@@H]1c1ccccc1CN=[N+]=[N-] ... 0.0796

Incoming: Name the recorded composite z-score of the compound listed here: C[N+](C)(C)CCCC[C@@H]1NC(=O)[C@@H]2C[C@H](C(=O)NCc3ccc(F)cc3)[C@H](c3ccc(O)cc3)N2C1=O
Outgoing: -0.381

Incoming: Name the recorded composite z-score of the compound listed here: C=CCNC(=O)[C@H]1[C@@H]2C(=O)O[C@@H](c3ccccc3)[C@@H](c3ccccc3)N2[C@@H](c2ccc(OCCO)cc2)[C@]12C(=O)Nc1ccccc12
Outgoing: -0.0505

Incoming: Name the recorded composite z-score of the compound listed here: CCCCN1CC=CC23O[C@@H]4/C=C\CCCOC(=O)C4[C@H]2C(=O)N(C(CO)C(C)C)[C@@H]3C1=O (stereo not given in full)
Outgoing: 0.0469

Incoming: Name the recorded composite z-score of the compound listed here: O=C1[C@H]2C=C(I)[C@H](C[C@@H]2c2ccccc2)[C@@]12CO2
Outgoing: -0.117

Incoming: Name the recorded composite z-score of the compound listed here: COC(=O)c1cccc([C@H]2OC(=CC(=O)OC(C)C)C[C@@H](c3cccc(C(=O)OC)c3)O2)c1
Outgoing: 0.156

Incoming: Name the recorded composite z-score of the compound listed here: COCCOC(=O)N1C(=O)[C@@]2(c3ccccc31)[C@H](C(=O)N1CCN(c3ncccn3)CC1)[C@H]1C(=O)O[C@H](c3ccccc3)[C@H](c3ccccc3)N1[C@@H]2c1ccccc1OCCO
Outgoing: 0.704

Incoming: Name the recorded composite z-score of the compound listed here: Cc1ccc(S[C@]2(C(=O)NCc3ccccc3)CC(=O)N(Cc3ccccc3C(F)(F)F)[C@@H]2c2ccc(CO)cc2)cc1
Outgoing: -0.221

###

Biological target: Fibroblast growth factor 10 (Homo sapiens)
Assay: compounds binding fibroblast growth factor 10 – biochemical, small-molecule microarray, 635 nm fluorescence, primary screen (AID 1102)
Conditions: FGF10 binding, fluorescence 635 nm, higher = more signal
readout.type: composite z-score
Give your answer as a number; write no unit.

Example compounds with recorded composite z-score:
O=C1NC(=O)C2C1C=CC(C(O)c1ccc(B(O)O)cc1)N2Nc1ccc(Cl)cc1Cl (stereo not given) ... 0.0671
COc1cc(C(O)C2C=CC3C(=O)N(c4ccccc4)C(=O)C3N2Nc2ccccc2F)cc(OC)c1OC (stereo not given) ... 1.35
O=C(O)[C@H](Cc1ccccc1)n1cc(C2(O)CCCCC2)nn1 ... 0.193

Incoming: Name the recorded composite z-score of the compound listed here: O=C1C[C@]2(c3ccc([N+](=O)[O-])cc3)C(=O)N(C3CC3)c3cc(CO)ccc3[C@H]2N1C1CCCCC1
Outgoing: -0.104

Incoming: Name the recorded composite z-score of the compound listed here: C=CCC(OC(C)=O)[C@@H]1[C@@H](N(Cc2ccc(-c3cccc(C(F)(F)F)c3)o2)C(=O)Cc2ccc(F)cc2)c2cc(OCCCO)ccc2N1C(=O)Cc1ccc2ccccc2c1 (stereo not given in full)
Outgoing: -0.195

Incoming: Name the recorded composite z-score of the compound listed here: Cc1ccc(S[C@]2(C(=O)NCCCN(C)C)CC(=O)N(Cc3ccccc3C(F)(F)F)[C@@H]2c2ccc(CO)cc2I)cc1
Outgoing: -0.54

Incoming: Name the recorded composite z-score of the compound listed here: [N-]=[N+]=NCc1ccccc1[C@@H]1OC(c2ccc(OCCCO)cc2)=N[C@]1(Cc1ccccc1N=[N+]=[N-])C(=O)NCC(O)CO (stereo not given in full)
Outgoing: 0.846

Incoming: Name the recorded composite z-score of the compound listed here: O=C1O[C@@H](c2ccccc2)[C@@H](c2ccccc2)N2[C@@H](c3ccccc3OCCO)[C@]3(C(=O)Nc4ccc(C#CCCO)cc43)[C@@H](C(=O)NC[C@H](O)c3ccccc3)[C@H]12
Outgoing: 0.428
